// data source = the supplement of paper PMC7125110

B1: glmS ribozyme (parent)
chain: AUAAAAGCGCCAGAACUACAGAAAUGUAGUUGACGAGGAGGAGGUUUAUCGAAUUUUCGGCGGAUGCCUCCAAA

Variants of: B1
Assay: kcat; higher = faster cleavage; RNA array
Conditions: with glucosamine-6-phosphate
Fewer inactive variants are shown than the library holds.

biopolymer-sequence | qualifier-sign | kcat [s⁻¹]
AUAAAAGCGCCAGAACUACAGAAAUGUAGUUGACGAGGAGGAGGUUUGUCGAAUGUUCGGCGGAUGCCUCCAAA [A48G U55G] | = | 9.18e-05
AUAAAAGGGCCAGAACUACAGAAAUGUAGUUGACGAGGAGGAGGUUUAUCGAAUUUUCGACGGAUGCCUCCAAA [C8G G60A] | < | 1e-05
AUAAAAGCGCCAGAACUACAGAAAUGUAGUUGACGAGGAGGAGGUUUAUCGAAUUUUCGGCGGAUGUCCCCAAA [C67U U69C] | = | 0.000129
AUAAAAGCGCCAGAACUACAGAAAUGUAGCUGACGAGGAGGAGGUUUAUCGAAUUUUCGGCGGAAGCCUCCAAA [U30C U65A] | = | 2.91e-05
AUAAAAGCGCCAGAACUACAGAAAUGUAGCUGACGAGGAGGAGGUUUAUCGAAUUUUUGGCGGAUGCCUCCAAA [U30C C58U] | = | 3.26e-05
AUAAAAGCGCCAGAACUACAGAAAUGUAGAUGACGAGGAGGAGGUUUAUCGAAUUUUCGGCGGAUGCCUGCAAA [U30A C70G] | = | 8.36e-05
AUAAAAGCGCCAGAACUACAGAAAUGUAGUUGACGAGGAGGAGGUUUAUCGAAUUUUCGGCGGAGGCUUCCAAA [U65G C68U] | = | 0.00167
AUAAAAGCGCCAGAACUACAGAAAUGUAGUUGACGAGGAGGAGGUUAAUCGAAUUUUCGGCGGAUGCCUACAAA [U47A C70A] | = | 0.000263
AUAAAAGCGCCAGAACUACAGAAAUGUAAUUGACGAGGAGUAGGUUUAUCGAAUUUUCGGCGGAUGCCUCCAAA [G29A G41U] | = | 9.86e-05
AUAAAAUCGCCAAAACUACAGAAAUGUAGUUGACGAGGAGGAGGUUUAUCGAAUUUUCGGCGGAUGCCUCCAAA [G7U G13A] | < | 1e-05
AUAAAAGCGCCAGAAGUACAGAAAUGUAGUUGACGAGGAGGAGGUCUAUCGAAUUUUCGGCGGAUGCCUCCAAA [C16G U46C] | = | 0.000353
AUAAAAGCGCCAGAACUACAGAAAUGUAUUUGACGAGGAGGAGGUUUAUCGAAUUUUCGGCGGAUGCCUGCAAA [G29U C70G] | = | 7.29e-05
AUAAAAGCGCCAGAACUACAGAAAUGUAGUUGACGAGGAGGAGGUUUAUCGAAGUUACGGCGGAUGCCUCCAAA [U54G U57A] | = | 0.000134
AUAAAAGCGCCAGAACUACAGAAAUGUAGAUGACGAGGAGGAGGUUUAUCGAAUUUUCGGCGGAUGACUCCAAA [U30A C67A] | = | 0.00161
AUAAAAGCGCCAAAACUACAGAAAUGUAGUGGACGAGGAGGAGGUUUAUCGAAUUUUCGGCGGAUGCCUCCAAA [G13A U31G] | = | 0.000328
AUAAAAGCGCAAGAACUACAGAAAUGUAGUUGACGAGGAGGAGGUUUAUCGAAUUUUCGGCAGAUGCCUCCAAA [C11A G62A] | = | 1.14e-05
AUAAAAGCGCCAGAACUACAGAAAUGUAGUUGACGAGGAGGAGGUUUAUCGACUUUUCGACGGAUGCCUCCAAA [A53C G60A] | = | 2.08e-05
AUAAAAGCGCCAGAACUACAGAAAUGUAAUUAACGAGGAGGAGGUUUAUCGAAUUUUCGGCGGAUGCCUCCAAA [G29A G32A] | = | 0.00111
AUAAAAGUGCCAGAACUACAGAAAUGUAGUUGACAAGGAGGAGGAUUAUCGAAUUUUCGGCGGAUGCCGCCAAA [C8U G35A U45A U69G] | = | 1.02e-05
AUAAAAGCGCCAAAACUACAGAAAUGUAGUUGACGAGGAGGAGGUUCAUCGAAUUUUCGGCGGAUGCCUCCAAA [G13A U47C] | = | 8.51e-05
AUAAAAGCGCCAGAACUACAGAAAUGUAGUUGACGAGGAGGAGGUUUAUCUAAUUUACGGCGGAUGCCUCCAAA [G51U U57A] | < | 1e-05
AUAAAAGCGCCAGAACUACAGAAAUGUAGUUGACGAGGAGGAGGUUGAUCGAAUUUUCGGCGGAUGGCUCCAAA [U47G C67G] | = | 0.000689
